Values compiled from patent US20040242904A1.

# System name: C. neoformans/SIII (S. cerevisiae strain expressing C. neoformans eEF2) (Cryptococcus neoformans, UniProt Q9HFZ8)
# Sequence (Q9HFZ8 1-838, change not shown): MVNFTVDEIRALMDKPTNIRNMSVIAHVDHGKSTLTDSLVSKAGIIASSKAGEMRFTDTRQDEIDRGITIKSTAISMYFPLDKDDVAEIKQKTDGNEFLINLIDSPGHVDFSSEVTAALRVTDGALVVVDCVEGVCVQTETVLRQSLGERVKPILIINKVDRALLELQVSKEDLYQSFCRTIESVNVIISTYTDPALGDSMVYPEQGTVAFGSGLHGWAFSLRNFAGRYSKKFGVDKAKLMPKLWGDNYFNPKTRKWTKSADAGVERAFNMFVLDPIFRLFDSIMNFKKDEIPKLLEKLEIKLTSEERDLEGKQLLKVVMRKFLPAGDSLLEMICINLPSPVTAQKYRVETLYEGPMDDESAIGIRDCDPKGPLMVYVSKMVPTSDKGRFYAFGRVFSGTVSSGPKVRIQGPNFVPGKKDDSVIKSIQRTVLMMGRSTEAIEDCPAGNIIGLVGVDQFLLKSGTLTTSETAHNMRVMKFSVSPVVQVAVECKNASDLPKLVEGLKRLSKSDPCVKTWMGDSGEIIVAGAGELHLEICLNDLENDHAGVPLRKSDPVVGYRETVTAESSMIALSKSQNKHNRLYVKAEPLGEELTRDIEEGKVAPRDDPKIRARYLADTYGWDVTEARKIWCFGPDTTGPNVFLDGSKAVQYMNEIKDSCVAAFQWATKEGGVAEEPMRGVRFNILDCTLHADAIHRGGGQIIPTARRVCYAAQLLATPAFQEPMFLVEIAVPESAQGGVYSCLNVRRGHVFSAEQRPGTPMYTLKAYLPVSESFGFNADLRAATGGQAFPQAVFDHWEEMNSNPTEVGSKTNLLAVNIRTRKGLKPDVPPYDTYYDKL
# Measurement protocol: SwordIII growth inhibition assay, C. neoformans/SIII strain
# Format: cell-based
# Reported conditions: SC medium, 29° C., approximately 16 hours, read-out: IC50 (μg/ml)

{"Molecule": "CO[C@H]1[C@@H](O)[C@H](O)[C@H](OC[C@@]23C[C@@H]4[C@H](C)CC[C@H]4[C@@]4(C=O)CC2C=C(C(C)C)[C@@]34C(=O)O)O[C@@H]1C [Sordarin]", "IC50": "> 203 µM"}

----------
# System name: C. neoformans/SIII (S. cerevisiae strain expressing C. neoformans eEF2) (Cryptococcus neoformans)
# Measurement protocol: SwordIII growth inhibition assay, C. neoformans/SIII strain
# Format: cell-based
# Reported conditions: read-out: IC50 (μg/ml), SC medium, 29° C., approximately 16 hours

{"Compound": "COC1C(C)OC(OCC23CC4C(C)CCC4C4(C=O)CC2C=C(C(C)C)C43C(=O)O)C(O)C12OC(=O)C(CCCCCCCC(=O)O)O2 (stereo not shown)", "IC50": "7.24 µM"}
